These data points were gathered from ChEMBL document CHEMBL2040768.

- Test system: A549
- Assay explanation: Cytotoxicity against human A549 cells after 72 hrs by MTT assay
- Type: functional, cell-based
- Measurement context: A549, 72 h
Property label: pIC50
For clarity, pIC50 is expressed as the negative log10 of concentration in mol/L.

// query pIC50 value for entry O=S(=O)(/C=C/S(=O)(=O)c1ccc(Cl)cc1)Cc1nnc(CS(=O)(=O)Nc2ccc(Cl)cc2)o1 4.50

* * *

This section presents molecules with their documented zone of inhibition at 50 µg/mL values.
- Test system: Penicillium chrysogenum
- Assay explanation: Antifungal activity against Penicillium chrysogenum at 50 ug/ml after 48 hrs by agar well diffusion method
- Format: functional
- Measurement context: read-out: DIZ
Just the number please, in mm, no unit attached.

Field: example entries. Status: answers known.
INSERT INTO measurements (molecule, assay_system, reported) VALUES
  ('Nn1c(CS(=O)(=O)Nc2ccccc2)nnc1CS(=O)(=O)c1c[nH]nc1S(=O)(=O)c1ccccc1', 'Penicillium chrysogenum', 20),
  ('Nn1c(CS(=O)(=O)Nc2ccc(Cl)cc2)nnc1CS(=O)(=O)C1CNN=C1S(=O)(=O)c1ccc(Cl)cc1 (centres undefined)', 'Penicillium chrysogenum', 29),
  ('O=S(=O)(Cc1nnc(CS(=O)(=O)c2c[nH]cc2S(=O)(=O)c2ccc(Cl)cc2)o1)Nc1ccc(Cl)cc1', 'Penicillium chrysogenum', 22);

// query zone of inhibition at 50 µg/mL value for entry O=S(=O)(Cc1nnc(CS(=O)(=O)C2CNN=C2S(=O)(=O)c2ccc(Cl)cc2)o1)Nc1ccc(Cl)cc1 (centres undefined) 22

* * *

- System: Penicillium chrysogenum
- Assay explanation: Antifungal activity against Penicillium chrysogenum at 50 ug/ml after 48 hrs by agar well diffusion method
- Format: functional
- Measurement context: read-out: DIZ
This section presents compounds with their documented zone of inhibition at 50 µg/mL values.
Just the number please, in mm, no unit attached.

INSERT INTO assay_data (molecule_smiles, unit_text, reported) VALUES
  ('Nn1c(CS(=O)(=O)Nc2ccccc2)nnc1CS(=O)(=O)c1c[nH]cc1S(=O)(=O)c1ccccc1', 'mm', 19);

Give Penicillium chrysogenum zone of inhibition at 50 µg/mL for Nn1c(CS(=O)(=O)Nc2ccc(Cl)cc2)nnc1CS(=O)(=O)c1c[nH]nc1S(=O)(=O)c1ccc(Cl)cc1 33

Give Penicillium chrysogenum zone of inhibition at 50 µg/mL for Nn1c(CS(=O)(=O)Nc2ccc(Cl)cc2)nnc1CS(=O)(=O)c1c[nH]cc1S(=O)(=O)c1ccc(Cl)cc1 33

Give Penicillium chrysogenum zone of inhibition at 50 µg/mL for Cc1ccc(NS(=O)(=O)Cc2nnc(CS(=O)(=O)c3c[nH]nc3S(=O)(=O)c3ccc(C)cc3)n2N)cc1 14

Give Penicillium chrysogenum zone of inhibition at 50 µg/mL for Nn1c(CS(=O)(=O)/C=C/S(=O)(=O)c2ccc(Cl)cc2)nnc1CS(=O)(=O)Nc1ccc(Cl)cc1 35

Give Penicillium chrysogenum zone of inhibition at 50 µg/mL for Cc1ccc(NS(=O)(=O)Cc2nnc(CS(=O)(=O)/C=C/S(=O)(=O)c3ccc(C)cc3)n2N)cc1 22

Give Penicillium chrysogenum zone of inhibition at 50 µg/mL for O=S(=O)(Cc1nnc(CS(=O)(=O)c2c[nH]cc2S(=O)(=O)c2ccccc2)s1)Nc1ccccc1 17

Give Penicillium chrysogenum zone of inhibition at 50 µg/mL for Cc1ccc(NS(=O)(=O)Cc2nnc(CS(=O)(=O)c3c[nH]cc3S(=O)(=O)c3ccc(C)cc3)n2N)cc1 18

* * *

This section presents compounds with their documented zone of inhibition at 50 µg/mL values.
- Tested on: Staphylococcus aureus
- Assay explanation: Antibacterial activity against Staphylococcus aureus at 50 ug/ml after 24 hrs by agar well diffusion method
- Type: functional
- Measurement context: read-out: DIZ
Just the number please, in mm, no unit attached.

INSERT INTO measurements (compound, property_label, reported) VALUES
  ('Cc1ccc(NS(=O)(=O)Cc2nnc(CS(=O)(=O)c3c[nH]nc3S(=O)(=O)c3ccc(C)cc3)s2)cc1', 'zone of inhibition at 50 µg/mL', 12),
  ('O=S(=O)(Cc1nnc(CS(=O)(=O)C2CNN=C2S(=O)(=O)c2ccccc2)s1)Nc1ccccc1 (stereo not drawn)', 'zone of inhibition at 50 µg/mL', 12),
  ('O=S(=O)(Cc1nnc(CS(=O)(=O)c2c[nH]cc2S(=O)(=O)c2ccc(Cl)cc2)s1)Nc1ccc(Cl)cc1', 'zone of inhibition at 50 µg/mL', 26),
  ('O=S(=O)(Cc1nnc(CS(=O)(=O)c2c[nH]nc2S(=O)(=O)c2ccc(Cl)cc2)o1)Nc1ccc(Cl)cc1', 'zone of inhibition at 50 µg/mL', 20),
  ('O=S(=O)(Cc1nnc(CS(=O)(=O)C2CNN=C2S(=O)(=O)c2ccc(Cl)cc2)o1)Nc1ccc(Cl)cc1 (stereo not drawn)', 'zone of inhibition at 50 µg/mL', 17),
  ('O=S(=O)(Cc1nnc(CS(=O)(=O)c2c[nH]cc2S(=O)(=O)c2ccccc2)o1)Nc1ccccc1', 'zone of inhibition at 50 µg/mL', 12);

// query zone of inhibition at 50 µg/mL value for entry Cc1ccc(NS(=O)(=O)Cc2nnc(CS(=O)(=O)C3CNN=C3S(=O)(=O)c3ccc(C)cc3)n2N)cc1 (stereo not drawn) 13

// query zone of inhibition at 50 µg/mL value for entry Nn1c(CS(=O)(=O)Nc2ccc(Cl)cc2)nnc1CS(=O)(=O)c1c[nH]nc1S(=O)(=O)c1ccc(Cl)cc1 31

* * *

This section presents compounds with their documented zone of inhibition at 50 µg/mL values.
- Test system: Staphylococcus aureus
- Assay explanation: Antibacterial activity against Staphylococcus aureus at 50 ug/ml after 24 hrs by agar well diffusion method
- Type: functional
- Measurement context: read-out: DIZ
Just the number please, in mm, no unit attached.

Field: example entries. Status: answers known.
INSERT INTO results (compound, unit_text, reported) VALUES
  ('Nn1c(CS(=O)(=O)/C=C/S(=O)(=O)c2ccccc2)nnc1CS(=O)(=O)Nc1ccccc1', 'mm', 21),
  ('O=S(=O)(Cc1nnc(CS(=O)(=O)c2c[nH]nc2S(=O)(=O)c2ccccc2)o1)Nc1ccccc1', 'mm', 10),
  ('O=S(=O)(Cc1nnc(CS(=O)(=O)c2c[nH]nc2S(=O)(=O)c2ccc(Cl)cc2)s1)Nc1ccc(Cl)cc1', 'mm', 27),
  ('O=S(=O)(/C=C/S(=O)(=O)c1ccc(Cl)cc1)Cc1nnc(CS(=O)(=O)Nc2ccc(Cl)cc2)s1', 'mm', 29),
  ('Nn1c(CS(=O)(=O)Nc2ccccc2)nnc1CS(=O)(=O)C1CNN=C1S(=O)(=O)c1ccccc1 (stereo not drawn)', 'mm', 13);

// query zone of inhibition at 50 µg/mL value for entry O=S(=O)(Cc1nnc(CS(=O)(=O)c2c[nH]cc2S(=O)(=O)c2ccc(Cl)cc2)o1)Nc1ccc(Cl)cc1 18

// query zone of inhibition at 50 µg/mL value for entry Nn1c(CS(=O)(=O)Nc2ccc(Cl)cc2)nnc1CS(=O)(=O)C1CNN=C1S(=O)(=O)c1ccc(Cl)cc1 (stereo not drawn) 25

// query zone of inhibition at 50 µg/mL value for entry Cc1ccc(NS(=O)(=O)Cc2nnc(CS(=O)(=O)/C=C/S(=O)(=O)c3ccc(C)cc3)n2N)cc1 20

* * *

- Tested on: Penicillium chrysogenum
- Assay explanation: Antifungal activity against Penicillium chrysogenum at 100 ug/ml after 48 hrs by agar well diffusion method
- Assay type: functional
- Measurement context: read-out: DIZ
Hi, to clarify the labels: Yes covers zone of inhibition at 100 µg/mL from 20 mm upward, No covers anything below 20 mm.

INSERT INTO assay_data (compound, label_value) VALUES
  ('Cc1ccc(NS(=O)(=O)Cc2nnc(CS(=O)(=O)c3c[nH]nc3S(=O)(=O)c3ccc(C)cc3)s2)cc1', 'No'),
  ('Cc1ccc(NS(=O)(=O)Cc2nnc(CS(=O)(=O)C3CNN=C3S(=O)(=O)c3ccc(C)cc3)s2)cc1 (configuration not stated)', 'No'),
  ('Nn1c(CS(=O)(=O)Nc2ccc(Cl)cc2)nnc1CS(=O)(=O)C1CNN=C1S(=O)(=O)c1ccc(Cl)cc1 (configuration not stated)', 'Yes');

Hello, I need to know if O=S(=O)(Cc1nnc(CS(=O)(=O)c2c[nH]cc2S(=O)(=O)c2ccc(Cl)cc2)s1)Nc1ccc(Cl)cc1 has measured zone of inhibition at 100 µg/mL not below 20 mm. Thanks! Yes

Hello, I need to know if O=S(=O)(/C=C/S(=O)(=O)c1ccc(Cl)cc1)Cc1nnc(CS(=O)(=O)Nc2ccc(Cl)cc2)s1 has measured zone of inhibition at 100 µg/mL not below 20 mm. Thanks! Yes

Hello, I need to know if Cc1ccc(NS(=O)(=O)Cc2nnc(CS(=O)(=O)c3c[nH]cc3S(=O)(=O)c3ccc(C)cc3)n2N)cc1 has measured zone of inhibition at 100 µg/mL not below 20 mm. Thanks! Yes
